Ref: PubChem BioAssay (NCI)

Exercise: state measured TGI for each of the compounds provided.
Test system: MCF7 breast
Experimental Details: NCI tumour cell line growth inhibition, 48 h

Form entry - test system: MCF7 breast; read-out: TGI; compound: O=S1(=O)c2ccccc2NC(=S)CC1c1ccccc1 (stereo not drawn)
> 100 µM

Form entry - test system: MCF7 breast; read-out: TGI; compound: CCOc1c(Cl)cc(CNC(C)C(O)c2ccccc2)cc1OC (stereo not drawn)
45.2 µM

Form entry - test system: MCF7 breast; read-out: TGI; compound: Cc1cc(N/N=C/c2nc(-c3ccc(Cl)cc3)oc2C)c2cc(Cl)ccc2n1
2.97 µM

Form entry - test system: MCF7 breast; read-out: TGI; compound: CC(=O)OCC=C(CCl)CCC(Br)C(C)(C)Br (mixture of isomers)
> 10 µM

Form entry - test system: MCF7 breast; read-out: TGI; compound: C=C1C(=O)O[C@H]2C[C@@]3(C)[C@H](O)CCC(=C)[C@@H]3[C@@H](OC(C)=O)[C@H]12
9.84 µM

Form entry - test system: MCF7 breast; read-out: TGI; compound: CC1(COS(=O)(=O)OCC2(C)COS(=O)(=O)OC2)COS(=O)(=O)OC1
> 59.9 µM

Form entry - test system: MCF7 breast; read-out: TGI; compound: CCN(CC)CCCC(C)Nc1c2ccc(C)cc2nc2ccc(OC)cc12 (stereo not drawn)
11.1 µM

Form entry - test system: MCF7 breast; read-out: TGI; compound: OCC1OC(n2cnc3c(/C=C(/O)c4ccccc4)ncnc32)C(O)C1O (stereo not drawn)
> 100 µM

Form entry - test system: MCF7 breast; read-out: TGI; compound: Nc1ccc2[nH]c(C(=O)N3CC(CCl)c4c3cc(N)c3ccccc43)cc2c1 (stereo not drawn)
0.153 µM

Form entry - test system: MCF7 breast; read-out: TGI; compound: CSc1ccc(/C=C2\C=C(CC(=O)NCc3ccc(C(=O)c4ccccc4)cc3)c3cc(F)ccc32)cc1
12.2 µM

Form entry - test system: MCF7 breast; read-out: TGI; compound: COc1ccccc1Nc1nc(NNC(=O)Cc2ccccc2)nc(NNC(=O)c2ccncc2)n1
> 10 µM

Form entry - test system: MCF7 breast; read-out: TGI; compound: COc1c(C)c(OC)c2c(c1O)[C@@H]1[C@@H]3Cc4c(OC)c(C)c(OC)c(O)c4[C@H](CNC(=O)c4cnc5ccccc5n4)N3[C@@H](C#N)[C@H](C2)N1C
> 0.1 µM

Form entry - test system: MCF7 breast; read-out: TGI; compound: COC(=O)[C@@]12CCCC(=O)[C@@H]1[C@H]1CCCC[C@H]12
> 100 µM

Form entry - test system: MCF7 breast; read-out: TGI; compound: Cc1cc(-c2nnc3n2CCCCC3)c(C)n1-c1ccc(Cl)c(Cl)c1
20.2 µM

Form entry - test system: MCF7 breast; read-out: TGI; compound: Fc1cccc(Cl)c1/C=N\N=C1c2ccccc2-c2ccccc21
> 100 µM

Form entry - test system: MCF7 breast; read-out: TGI; compound: CC(C)OP(=O)(OC(C)C)C(C(C)C)N(C)/C(F)=N/C(F)(F)F (stereo not drawn)
> 100 µM

Form entry - test system: MCF7 breast; read-out: TGI; compound: Nc1cc(N2CCCC2)nc(=O)n1Cc1ccccc1
> 100 µM

Form entry - test system: MCF7 breast; read-out: TGI; compound: [N-]=[N+]=Nc1ccc(CNc2cc(=O)[nH]c(=O)[nH]2)cc1
> 100 µM
